The entries below come with measured MIC (anti-bacterial activity) values attached.
Tested on: methicillin-resistant Staphylococcus aureus (MRSA)
Assay text: MIC, two-fold agar dilution (CLSI), clinical isolates
Assay type: cell-based
Assay context: strain MRSA 14-1
Measured property: MIC (anti-bacterial activity)

> print(dat)
                               smiles.string              measured.property            val
 1  CCCC[C@H](CN(O)C=O)C(=O)N1CC2(CC2)C[C@H]1c1nnc2ccccn12  MIC (anti-bacterial activity)        1 µg/mL
 2  CCCC[C@H](CN(O)C=O)C(=O)N1CC2(CC2)C[C@H]1c1nnc(-c2ccccn2)o1  MIC (anti-bacterial activity)        4 µg/mL
 3  CCCC[C@H](CN(O)C=O)C(=O)N1CC2(CC2)C[C@H]1c1nc(-c2cccnc2)no1  MIC (anti-bacterial activity)      0.5 µg/mL
 4  CCCC[C@H](CN(O)C=O)C(=O)N1CC2(CC2)C[C@H]1C(=O)Nc1ncccc1F  MIC (anti-bacterial activity)      0.5 µg/mL
 5  CCCC[C@H](CN(O)C=O)C(=O)N1CC2(CC2)C[C@H]1C(=O)Nc1ccc(C)c(Nc2nccc(-c3cccnc3)n2)c1  MIC (anti-bacterial activity)    0.015 µg/mL
 6  CCCC[C@H](CN(O)C=O)C(=O)N1CC2(CC2)C[C@H]1C(=O)Nc1cccc(Nc2ncccn2)c1  MIC (anti-bacterial activity)     0.25 µg/mL
 7  CCCC[C@H](CN(O)C=O)C(=O)N1CC2(CC2)C[C@H]1c1nc2ccccc2[nH]1  MIC (anti-bacterial activity)        1 µg/mL
 8  CCCC[C@H](CN(O)C=O)C(=O)N1CC2(CC2)C[C@H]1C(=O)Nc1ncc(C)s1  MIC (anti-bacterial activity)  < 0.008 µg/mL
 9  CCCC[C@H](CN(O)C=O)C(=O)N1CC2(CC2)C[C@H]1C(=O)Nc1nccc(-c2cccnc2)n1  MIC (anti-bacterial activity)        2 µg/mL
10  CCCC[C@H](CN(O)C=O)C(=O)N1CC2(CC2)C[C@H]1C(=O)Nc1cc(C(C)(C)C)on1  MIC (anti-bacterial activity)     0.06 µg/mL
11  CCCC[C@H](CN(O)C=O)C(=O)N1CC2(CC2)C[C@H]1C(=O)Nc1cc[nH]n1  MIC (anti-bacterial activity)       16 µg/mL
12  CCCC[C@H](CN(O)C=O)C(=O)N1CC2(CC2)C[C@H]1C(=O)Nc1ccc(F)c[n+]1[O-]  MIC (anti-bacterial activity)     0.25 µg/mL

----------
Tested on: Streptococcus pneoumoniae (SPN)
Assay text: MIC, two-fold agar dilution (CLSI), clinical isolates
Assay type: cell-based
Assay context: strain SPN 16-4
The entries below come with measured MIC (anti-bacterial activity) values attached.
Measured property: MIC (anti-bacterial activity) (µg/mL)

> print(dat)
                              smiles.string  unit.tag   val
1  CCCC[C@H](CN(O)C=O)C(=O)N1CC2(CC2)C[C@H]1C(=O)Nc1nc(C)cs1     µg/mL  0.25
2  Cc1cnc(NC(=O)[C@@H]2CC3(CC3)CN2C(=O)[C@H](CC2CCCC2)CN(O)C=O)s1     µg/mL     4
3  O=CN(O)C[C@@H](CC1CCCC1)C(=O)N1CC2(CC2)C[C@H]1C(=O)Nc1cnccn1     µg/mL     2
4  CC(C)(C)c1cc(NC(=O)[C@@H]2CC3(CC3)CN2C(=O)[C@H](CC2CCCC2)CN(O)C=O)no1     µg/mL   0.5
5  O=CN(O)C[C@@H](CC1CCCC1)C(=O)N1CC2(CC2)C[C@H]1C(=O)Nc1ccno1     µg/mL     4
6  O=CN(O)C[C@@H](CC1CCCC1)C(=O)N1CC2(CC2)C[C@H]1C(=O)Nc1ccc(F)cn1     µg/mL     1
7  CCCC[C@H](CN(O)C=O)C(=O)N1CC2(CC2)C[C@H]1C(=O)Nc1ccc(N2CCOCC2)cc1     µg/mL   0.5
